# measurement target: Sigma non-opioid intracellular receptor 1 (Cavia porcellus) (UniProt Q60492)
# Sequence (Q60492 whole entry): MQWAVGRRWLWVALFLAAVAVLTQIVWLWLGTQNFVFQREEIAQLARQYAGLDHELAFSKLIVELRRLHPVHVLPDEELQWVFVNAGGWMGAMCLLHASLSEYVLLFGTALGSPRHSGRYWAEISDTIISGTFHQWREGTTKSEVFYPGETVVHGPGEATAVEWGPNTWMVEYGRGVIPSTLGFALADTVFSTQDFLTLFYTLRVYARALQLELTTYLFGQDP
# method notes: […] rat sigma 2 receptor over guinea pig sigma 1 receptor
Mark label 1 for Ratio Ki under 20, label 0 if at or over.

> print(dat)
                                   compound  qualitative.label
1    COc1ccc2c(CCCCN3CCC[C@@H](C)C3)cccc2c1            label 0
2       COc1ccc2c(CCCCN3CCCC[C@H]3C)cccc2c1            label 0
3  COc1ccc2c(c1)CCCC2CCCCN1CCCCC1 (stereo unspecified)            label 0
4       COc1ccc2c(CCCN3CCCC[C@@H]3C)cccc2c1            label 1
5       COc1ccc2c(CCCN3CCC(C)(C)CC3)cccc2c1            label 1
6      COc1ccc2c(CCCCN3CCC(C)(C)CC3)cccc2c1            label 1

###

# measurement target: Sigma non-opioid intracellular receptor 1 (Cavia porcellus, UniProt Q60492)
# Sequence (Q60492 whole entry): as above
# method notes: Displacement of [3H](+)-pentazocine from sigma 1 receptor in guinea pig brain membranes
Mark YES only when Ki stays strictly below 1 nM. Values equal to the cut-off are NO.

> print(dat)
                                    compound  qualitative.label
 1      COc1ccc2c(CCCCN3CCCC[C@@H]3C)cccc2c1                YES
 2            COc1ccc2c(CCCCN3CCCCC3)cccc2c1                 NO
 3       COc1ccc2c(CCCN3CCC(C)(C)CC3)cccc2c1                 NO
 4     COc1ccc2c(CCCN3CCC[C@@H](C)C3)cccc2c1                 NO
 5       COc1ccc2c(CCCN3CCCC(C)(C)C3)cccc2c1                YES
 6    COc1ccc2c(CCCCN3CCC[C@@H](C)C3)cccc2c1                YES
 7       COc1ccc2c(CCCCN3CCCC[C@H]3C)cccc2c1                 NO
 8      COc1ccc2c(CCCCN3CCCC(C)(C)C3)cccc2c1                YES
 9     COc1ccc2c(CCCCN3CCC[C@H](C)C3)cccc2c1                YES
10         COc1ccc2c(CCCCN3CCC(C)CC3)cccc2c1                YES
11       COc1ccc2c(CCCN3CCCC[C@@H]3C)cccc2c1                 NO
12  COc1ccc2c(c1)CCCC2CCCN1CCC(C)(C)CC1 (stereo unspecified)                 NO
13  COc1ccc2c(c1)CCCC2CCCCN1CCCCC1(C)C (stereo unspecified)                 NO
14             COc1ccc2c(CCCN3CCCCC3)cccc2c1                 NO
15  COc1ccc2c(c1)CCCC2CCCCN1CCC(C)CC1 (stereo unspecified)                YES
16  COc1ccc2c(c1)CCCC2CCCN1CCC(C)CC1 (stereo unspecified)                 NO
17         COc1ccc2c(CCCN3CCCCC3(C)C)cccc2c1                 NO
18          COc1ccc2c(CCCN3CCC(C)CC3)cccc2c1                 NO
19        COc1ccc2c(CCCN3CCCC[C@H]3C)cccc2c1                 NO
20      COc1ccc2c(CCCN3CCC[C@H](C)C3)cccc2c1                 NO
21  COc1ccc2c(c1)CCCC2CCCCN1CCC(C)(C)CC1 (stereo unspecified)                YES
22  COc1ccc2c(c1)CCCC2CCCN1CCCCC1 (stereo unspecified)                 NO
23        COc1ccc2c(CCCCN3CCCCC3(C)C)cccc2c1                 NO
24  COc1ccc2c(c1)CCCC2CCCN1CCCCC1(C)C (stereo unspecified)                 NO
25      COc1ccc2c(CCCCN3CCC(C)(C)CC3)cccc2c1                 NO

Cited source: ChEMBL document CHEMBL1141188
